Target: human Jak2 (a.a. 828-1132) (Homo sapiens (Human), UniProt O60674)
Sequence (O60674 828-1132): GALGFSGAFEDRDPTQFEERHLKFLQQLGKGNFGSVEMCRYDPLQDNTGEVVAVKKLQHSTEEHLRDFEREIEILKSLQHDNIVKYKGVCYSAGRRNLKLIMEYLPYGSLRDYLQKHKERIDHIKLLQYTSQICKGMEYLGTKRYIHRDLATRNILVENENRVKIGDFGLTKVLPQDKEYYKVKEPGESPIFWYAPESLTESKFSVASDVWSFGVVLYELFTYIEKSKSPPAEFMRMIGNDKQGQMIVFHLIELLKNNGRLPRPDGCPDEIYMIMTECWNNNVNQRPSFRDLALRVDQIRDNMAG
measure.name: IC50

IN: Give the reported IC50 for CC1CC(N2CC(CC#N)(n3cc(-c4ncnc5[nH]ccc45)cn3)C2)CCN1C(=O)c1cccc(F)c1 (single isomer, unassigned) [Example 149] (system: human Jak2 (a.a. 828-1132) (Homo sapiens (Human), UniProt O60674)).
OUT: 10 to 50 nM

----------
Target: human JAK1 (a.a. 837-1142)
Assay: In vitro JAK kinase assay (HTRF, phosphorylation of a biotinylated peptide), JAK1
Assay type: biochemical
Conditions: measured at 1 mM ATP; JAK2 IC50 / JAK1 IC50
Protocol: Compounds herein were tested for inhibitory activity of JAK targets according to the following in vitro assay described in Park et al., Analytical Biochemistry 1999, 269, 94-104. […] The phosphorylated peptide was detected by homogenous time resolved fluorescence (HTRF). […] Binding to the Europium labeled antibody took place for 40 minutes and HTRF signal was measured on a Fusion plate reader (Perkin Elmer, Boston, Mass.).
One threshold, 4, splits the recorded IC50 Ratio JAK2/JAK1 values: lower ones are 1 (yes), equal or higher ones are 0 (no).

molecule	label
N#CCC1(n2cc(-c3ncnc4[nH]ccc34)cn2)CN(C2CCN(C(=O)c3sc4cc(F)ccc4c3Cl)CC2)C1	1 (yes)

IN: Hello, I'm reviewing records and need to know if IC50 Ratio JAK2/JAK1 of N#CCC1(n2cc(-c3ncnc4[nH]ccc34)cn2)CN(C2CCN(C(=O)c3ccc(Cl)s3)CC2)C1 is below 4. Could you check?
OUT: 0 (no)

IN: Hello, I'm reviewing records and need to know if IC50 Ratio JAK2/JAK1 of N#CCC1(n2cc(-c3ncnc4[nH]ccc34)cn2)CN(C2CCN(C(=O)c3ccc(C(F)(F)F)cc3F)CC2)C1 is below 4. Could you check?
OUT: 0 (no)

IN: Hello, I'm reviewing records and need to know if IC50 Ratio JAK2/JAK1 of N#CCC1(n2cc(-c3ncnc4[nH]ccc34)cn2)CN(C2CCN(C(=O)C3CCC(c4ccc(Cl)cc4)CC3)CC2)C1 (stereo not shown) is below 4. Could you check?
OUT: 0 (no)

IN: Hello, I'm reviewing records and need to know if IC50 Ratio JAK2/JAK1 of N#CCC1(n2cc(-c3c(C#N)cnc4[nH]ccc34)cn2)CN(C2CCN(C(=O)c3cc(C(F)(F)F)ncc3Cl)CC2)C1 is below 4. Could you check?
OUT: 1 (yes)

IN: Hello, I'm reviewing records and need to know if IC50 Ratio JAK2/JAK1 of N#CCC1(n2cc(-c3c(C#N)cnc4[nH]ccc34)cn2)CN(C2CCN(C(=O)c3cc(Br)ccc3Br)CC2)C1 is below 4. Could you check?
OUT: 1 (yes)

----------
Biological target: human JAK1 (a.a. 837-1142)
Test: In vitro JAK kinase assay (HTRF, phosphorylation of a biotinylated peptide), JAK1
Assay type: biochemical
Settings: measured at 1 mM ATP; JAK2 IC50 / JAK1 IC50
One threshold, 5, splits the recorded IC50 Ratio JAK2/JAK1 values: lower ones are Y, equal or higher ones are N.

See these solved cases before continuing.
line.notation	label
Cc1cc(NC(=O)N2CCC(N3CC(CC#N)(n4cc(-c5ncnc6[nH]ccc56)cn4)C3)CC2)n(C)n1	Y
N#CCC1(n2cc(-c3ncnc4[nH]ccc34)cn2)CN(C2CCN(C(=O)Nc3nc4ccccc4s3)CC2)C1	Y
COc1cccc(C(=O)N2CCC(N3CC(CC#N)(n4cc(-c5ncnc6[nH]ccc56)cn4)C3)CC2)c1	Y

IN: Hello, I'm reviewing records and need to know if IC50 Ratio JAK2/JAK1 of N#CCC1(n2ccc(-c3ncnc4[nH]ccc34)c2)CN(C2CCN(C(=O)c3cccs3)CC2)C1 is below 5. Could you check?
OUT: N

IN: Hello, I'm reviewing records and need to know if IC50 Ratio JAK2/JAK1 of N#CCC1(n2ccc(-c3ncnc4[nH]ccc34)c2)CN(C2CCN(C(=O)c3c(F)cccc3F)CC2)C1 is below 5. Could you check?
OUT: Y

IN: Hello, I'm reviewing records and need to know if IC50 Ratio JAK2/JAK1 of N#CCC1(n2cc(-c3ccnc4[nH]ccc34)cn2)CN(C2CCN(C(=O)Nc3ccc(C#N)cc3F)CC2)C1 is below 5. Could you check?
OUT: N

IN: Hello, I'm reviewing records and need to know if IC50 Ratio JAK2/JAK1 of N#CCC1(n2cc(-c3ncnc4[nH]ccc34)cn2)CN(C2CCN(C(=O)c3ccc(-c4nc5ccccc5o4)c(F)c3)CC2)C1 is below 5. Could you check?
OUT: N

IN: Hello, I'm reviewing records and need to know if IC50 Ratio JAK2/JAK1 of N#CCC1(n2cc(-c3ncnc4[nH]ccc34)cn2)CN(C2CCN(Cc3ccc(-c4conn4)cc3)CC2)C1 is below 5. Could you check?
OUT: Y
